# key: entry, value: r = (M2/M1)
# TARGET_SYSTEM: M1-type muscarinic cholinergic receptor (Rattus norvegicus)
# Sequence (P08482 whole entry): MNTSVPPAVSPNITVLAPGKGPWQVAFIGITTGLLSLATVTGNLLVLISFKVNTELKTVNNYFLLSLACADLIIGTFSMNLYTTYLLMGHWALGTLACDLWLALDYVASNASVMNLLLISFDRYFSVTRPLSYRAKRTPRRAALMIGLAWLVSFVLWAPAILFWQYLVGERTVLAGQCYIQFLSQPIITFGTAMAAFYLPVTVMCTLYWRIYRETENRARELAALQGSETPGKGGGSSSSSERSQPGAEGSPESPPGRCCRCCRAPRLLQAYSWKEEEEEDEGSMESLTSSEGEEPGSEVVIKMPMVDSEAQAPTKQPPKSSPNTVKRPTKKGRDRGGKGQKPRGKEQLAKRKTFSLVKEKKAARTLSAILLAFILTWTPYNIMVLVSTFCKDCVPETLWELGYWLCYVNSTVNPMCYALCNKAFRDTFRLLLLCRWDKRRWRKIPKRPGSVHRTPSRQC
# METHOD_SUMMARY: affinity for the M1-type muscarinic cholinergic receptor ([3H]-pirenzepine displacement, rat hippocampus homogenate)
# Assay type: binding
# ASSAY_SETUP: ratio of the IC50 values for M2 (3H-NMS) and M1 (3H-pirenzepine); selectivity
RECORDED_ENDPOINT: r = (M2/M1)

QUERY_SMILES | TARGET_SYSTEM | OPERATOR_SYMBOL | REPORTED_VALUE
Cc1cc(-c2ccccc2)nn2c(CN3CCOCC3)cnc12.Cl.Cl | M1-type muscarinic cholinergic receptor (Rattus norvegicus) | > | 71
CCN(CC)Cc1cn2nc(-c3ccccc3)cc(C)c2n1.Cl.Cl | M1-type muscarinic cholinergic receptor (Rattus norvegicus) | = | 130
CCN(CC)Cc1cn2nc(-c3cccc(OC)c3)cc(C)c2n1 | M1-type muscarinic cholinergic receptor (Rattus norvegicus) | = | 162
CCN(CC)Cc1cn2nc(-c3ccccc3)ccc2n1 | M1-type muscarinic cholinergic receptor (Rattus norvegicus) | = | 66
Clc1ccc(-c2ccc3nc(CN4CCOCC4)cn3n2)cc1 | M1-type muscarinic cholinergic receptor (Rattus norvegicus) | > | 33

* * *

Target protein (sequence): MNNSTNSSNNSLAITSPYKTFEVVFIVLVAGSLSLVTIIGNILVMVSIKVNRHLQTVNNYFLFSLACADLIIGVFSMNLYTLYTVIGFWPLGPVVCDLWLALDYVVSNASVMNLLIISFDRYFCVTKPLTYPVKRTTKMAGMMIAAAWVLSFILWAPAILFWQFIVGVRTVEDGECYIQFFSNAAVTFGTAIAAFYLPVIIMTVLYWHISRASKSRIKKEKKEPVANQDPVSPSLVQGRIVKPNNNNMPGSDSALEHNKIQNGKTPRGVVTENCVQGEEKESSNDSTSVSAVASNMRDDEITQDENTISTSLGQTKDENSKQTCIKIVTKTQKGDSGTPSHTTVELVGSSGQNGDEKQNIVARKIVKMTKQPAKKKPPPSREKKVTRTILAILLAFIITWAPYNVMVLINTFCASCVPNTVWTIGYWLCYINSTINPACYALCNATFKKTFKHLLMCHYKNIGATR
pIC50: −log10 of the molar value.
RECORDED_ENDPOINT: pIC50

COMPOUND | OPERATOR_SYMBOL | REPORTED_VALUE
CCN(CC)Cc1cn2nc(-c3ccccc3)cc(C)c2n1.Cl.Cl [SR 96052 A, dihydrochloride] | = | 4.19
Cc1cc(-c2ccccc2)nn2c(CN3CCOCC3)cnc12.Cl.Cl [SR 95950 A, dihydrochloride] | < | 4.00
CCN(CC)Cc1cn2nc(-c3cccc(OC)c3)cc(C)c2n1 [SR 96095 A] | = | 4.19
